measurement target: HuTCR Vb17 × Va12 (SKW3-2) (human)
Sequence (A0A075B6N1 22-114): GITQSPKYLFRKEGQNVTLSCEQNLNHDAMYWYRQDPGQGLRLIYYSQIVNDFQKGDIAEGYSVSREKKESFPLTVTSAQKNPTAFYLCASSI
protocol: flow cytometry on SKW3-2 cells
reported endpoint: MFI (MFI)
Give the value in MFI but do not write MFI after it.

Here's what some known entries look like.
# input Quickly give me recorded MFI for 20A9A9 (antibody, V domains shown) VH: EVQLQESGPGLVQPSQSLSITCTVSGFSLTSYGVHWVRQSPGKGLEWLGIIWSAGGTDYNAAFISRLSISKDNSKSQIFFKLNSLHADDTAIYFCARGSFYDYGRLDYWGQGTTLTVSS VL: DIVMTQSHRFMSTSVGDRVSITCKASQDVSTAVAWYQQKPGQSPKLLIYSSSYRYTGVPDRFTGSGSGTDFTFTISSVQAEDLAVYYCQQHYGTPYTFGGGTKLEIQ
# output 43100

# input Quickly give me recorded MFI for 28D2E6 (antibody, IgG1, V domains shown) VH: EVQLQESGPGLVKPSQSLSLTCSVTGYFISSGYYWKWIRQFPGNKLEWMGYISYDGSNNYNPSLKNRISITRDTSKNQFFLKLNSVTAEDTATYYCARGGGYVPVWGTGTTVTVSS VL: DIQMTQSPLSLPVSLGDQASISCRSSQSIVRSNGNTYLEWYLQKPGQSPKLLIYKVSNRFSGVPDRFSGSGSGTDFTLKISRVEAEDLGVYYCFQSSHVPRTFGGGTKLEIK
# output 53800

Shifting focus to the binder that follows.
# input Quickly give me recorded MFI for 28C9A5 (antibody, IgG2b, V domains shown) VH: EVQLQESGAELVRPGTSVKMSCKASGYTFTHYWIDWTKQRPGHGLEWIGNIYPGGGYTNYNENFKGKATLTADKSSSTVFMQFSSLTSDDSAIYYCTRKGYYYGSDWYFDVWGTGTTVTVSS VL: QIVLSQSPAIMSASPGEKVTMTCSASSSVSYMHWYQQKSGTSPKRWIYDTSKLASGVPARFSGSGSGTSYSLTISSMEAEDAATYYCQQWSSNPYTFGGGTKLEIK
# output 56900

Origin of the recorded values: patent US20250092134A1
